- ASSAY SYSTEM: ETS1 (UniProt P14921)
- Sequence: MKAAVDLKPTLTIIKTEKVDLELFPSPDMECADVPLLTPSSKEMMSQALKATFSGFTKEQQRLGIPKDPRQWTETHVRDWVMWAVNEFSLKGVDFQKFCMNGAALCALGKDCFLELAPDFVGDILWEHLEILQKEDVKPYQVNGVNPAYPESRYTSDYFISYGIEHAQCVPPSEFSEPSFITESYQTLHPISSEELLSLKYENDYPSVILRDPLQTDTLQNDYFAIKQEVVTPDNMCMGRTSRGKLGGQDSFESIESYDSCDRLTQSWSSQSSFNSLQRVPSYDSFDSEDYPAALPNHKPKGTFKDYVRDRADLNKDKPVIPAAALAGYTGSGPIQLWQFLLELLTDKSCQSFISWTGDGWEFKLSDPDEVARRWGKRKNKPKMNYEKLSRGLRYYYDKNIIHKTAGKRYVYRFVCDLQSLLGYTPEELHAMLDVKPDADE
- MEASUREMENT PROTOCOL: ETS1 binding intensity (PBM fluorescence), ETS1 alone (arbitrary fluorescence units); higher = stronger binding
- RUN PARAMETERS: ETS1 concentration 1 nM; RUNX1 concentration 0 nM
# thresholds on ETS1 binding intensity define classes: low-valued = under 700, mid-valued = from 700 up to 1000, high-valued = 1000 and over

A selection of reference data follows.
sequence_content=ACAATAACAGGAAGTGGTGGGGACTGCGGTGACCTG category_label=high-valued
sequence_content=TCATAAGGAAGTGGAGTGTAGTAACCACAGGCCCCG category_label=low-valued
sequence_content=GCCTGAAGCAGAGGATGTGGCTTCTGGCCCTCCCCT category_label=high-valued
sequence_content=TGCAGTCGTGAAAAAGGAAGTGGTTAAAGTGGCTAC category_label=high-valued

**Q:** Sort into band: CTGCTGGGCCCCTTCCTGTCAGCGGTTGCTCTTTAC
**A:** low-valued

**Q:** Sort into band: GGAGCAGGAAGCGTCGCCGGGGGGCCCACAAGGGTA
**A:** low-valued

**Q:** Sort into band: CCGCCACCGGAAGCGCCCTCCTAATCCCCGCAGCGC
**A:** high-valued

**Q:** Sort into band: CTCACCCCTGGAGGATGTGGGTTTCCAGGCTGACAG
**A:** mid-valued

**Q:** Sort into band: ATACCGGCGCATCCGGATTTTGAAGCCGCAGTGGAC
**A:** mid-valued

**Q:** Sort into band: TTGTCACGTCCGGCACGCCGCGAACCGCAAGGAACC
**A:** low-valued

**Q:** Sort into band: GCAGGCGTGCGCTTCCGCTCCAACCCGCGCACTTCG
**A:** high-valued

**Q:** Sort into band: GCTCTGGCGGAAGATGTCCCTGCGGTGCAGCTGCCG
**A:** low-valued

---

- ASSAY SYSTEM: RUNX1 (UniProt Q01196)
- Sequence (Q01196 whole entry): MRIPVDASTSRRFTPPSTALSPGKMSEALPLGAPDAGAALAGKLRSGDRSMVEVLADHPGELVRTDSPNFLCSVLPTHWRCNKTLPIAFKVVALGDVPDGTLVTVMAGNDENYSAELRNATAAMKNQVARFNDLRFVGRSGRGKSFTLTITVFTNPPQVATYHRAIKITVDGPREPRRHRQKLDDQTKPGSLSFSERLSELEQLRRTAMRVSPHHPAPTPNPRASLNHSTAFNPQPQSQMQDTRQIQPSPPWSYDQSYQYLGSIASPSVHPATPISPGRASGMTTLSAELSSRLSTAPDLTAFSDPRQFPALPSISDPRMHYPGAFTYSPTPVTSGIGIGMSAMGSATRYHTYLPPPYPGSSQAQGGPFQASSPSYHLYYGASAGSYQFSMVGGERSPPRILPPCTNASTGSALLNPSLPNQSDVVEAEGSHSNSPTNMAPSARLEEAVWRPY
- MEASUREMENT PROTOCOL: RUNX1 binding intensity (PBM fluorescence), RUNX1 alone (arbitrary fluorescence units); higher = stronger binding
- RUN PARAMETERS: RUNX1 concentration 2 nM; ETS1 concentration 0 nM
REPORTED ENDPOINT: RUNX1 binding intensity
Kindly provide the number alone.

sequence_content=CTCAGGGTACCAGGATGTGGTTTAGCTTAGGGGTGG experimental_value=980
sequence_content=CTCCATCTGCCCGGAAAACCGCAGCCGCCCCAACCT experimental_value=28600
sequence_content=CTCCGATTGAGAACAGGAAGCCACAGGCCAATACAA experimental_value=831
sequence_content=CTTAGCACTTCAGCCGGAAACCACAGCATACATTTC experimental_value=1460
sequence_content=ACGAGAGTCTAGAGGAAACCAACCCGCAACTCACTG experimental_value=892
sequence_content=GTGGGGCGGGCTTCCGGCGCTCCCACCGCGAGCCGA experimental_value=790
sequence_content=CCTCTTGGTTTCCTGTCCCTCACCACAAGAAGCAGT experimental_value=1540
sequence_content=AACAGACAGGATGTGGCCTCTGCCAAAACCACCATC experimental_value=869

**Q:** Look up RUNX1 binding intensity: AAGACACCAACGCTCGGAAACCGCCAGACACCAACG
**A:** 945

**Q:** Look up RUNX1 binding intensity: CATGTGCTTCCGGCTTGATCTGTGGTTATTCTGGTT
**A:** 1270

**Q:** Look up RUNX1 binding intensity: GGGTCGCGGCCTTCCGGCGAACGCGGTTACCGTGGA
**A:** 853

**Q:** Look up RUNX1 binding intensity: CGAAACGCGTTCCCCGGAAACCGCGCCCGGCTCCGA
**A:** 763

**Q:** Look up RUNX1 binding intensity: CAGGCCTTTCCTGCTATCGTTTGTGGTTTGAGCAGT
**A:** 1940

**Q:** Look up RUNX1 binding intensity: TCTGTCGTCCCACTTCCTGCTGCGGTTTCCACCTCG
**A:** 8620

**Q:** Look up RUNX1 binding intensity: TGGTTAGGGAGAGGGGGATGTGGTTAGGGTGAGGGA
**A:** 1110

**Q:** Look up RUNX1 binding intensity: GTGACGGATATCCACCGGGCCCTGTGGTTTCCAACA
**A:** 822

**Q:** Look up RUNX1 binding intensity: CCCGGAGGACGTCCGGCCTCTGTGAGCCGCAACCTT
**A:** 838

---

- ASSAY SYSTEM: RUNX1 (UniProt Q01196)
- MEASUREMENT PROTOCOL: RUNX1 binding intensity (PBM fluorescence) in presence of ETS1, normalised to RUNX1-only experiment (arbitrary fluorescence units); higher = stronger binding
- RUN PARAMETERS: RUNX1 concentration 2 nM; ETS1 concentration 25 nM
Listed sequences paired with reported RUNX1 binding intensity
Kindly provide the number alone.

sequence_content=GACCTGGGTTTCCTGTCTGTACATCGCGGTTCCTAC reported_endpoint="RUNX1 binding intensity" experimental_value=1830
sequence_content=AACGGACCCGGAAGGGGCAGGTCTTGTGGGCGGGTC reported_endpoint="RUNX1 binding intensity" experimental_value=904
sequence_content=GCCAAGGCCTTCCGCCGAGTTGGTTTTTGGGTTGTT reported_endpoint="RUNX1 binding intensity" experimental_value=952
sequence_content=GAAATGAAGGCCGGATGTCAGTAACCACAAACGAGC reported_endpoint="RUNX1 binding intensity" experimental_value=11000
sequence_content=TTGGAAACAGACAGGAAGCCACAGGCAGTAAACATT reported_endpoint="RUNX1 binding intensity" experimental_value=978
sequence_content=CAGTTTGCCCCGGATGTTGACCGCCTTGAAGTCGTA reported_endpoint="RUNX1 binding intensity" experimental_value=1380
sequence_content=ATCCCACTATAGGAAGCTTCTCTGTGGTTTTGAGCC reported_endpoint="RUNX1 binding intensity" experimental_value=1910
sequence_content=TGGAAGAGGGCAGGAAGTGTTGTGGTCACTCCCACC reported_endpoint="RUNX1 binding intensity" experimental_value=1530
sequence_content=TCATTCTCTGATAAAGGAAGTGGTTACAGCACAATT reported_endpoint="RUNX1 binding intensity" experimental_value=1270
sequence_content=ACATGGTCTCGCTTCCTGTTTACACCACAGAAAGCT reported_endpoint="RUNX1 binding intensity" experimental_value=1850

**Q:** Look up RUNX1 binding intensity: AAACCCTGAGTAATCGGAAGTGGTTAGGAGTGAGAG
**A:** 1310

**Q:** Look up RUNX1 binding intensity: TGCTCAGAAGGGCATCCGGTTGCGGAGAAGGTACAC
**A:** 1370

**Q:** Look up RUNX1 binding intensity: TGGGAACTTCCTGTGGAGGAGTGCATTGTGGGACTT
**A:** 1630

**Q:** Look up RUNX1 binding intensity: AGGAAACCACAAGTTATTCCCTGCAAAGGTCTTGAT
**A:** 6430

**Q:** Look up RUNX1 binding intensity: TGAGCACTGAGCACTTCCTGTGGCTTCTGAAGCTCC
**A:** 1310

---

- ASSAY SYSTEM: RUNX1 (UniProt Q01196)
- MEASUREMENT PROTOCOL: TF binding intensity (PBM fluorescence), negative control probe (arbitrary fluorescence units); higher = stronger binding
REPORTED ENDPOINT: TF binding intensity
Kindly provide the number alone.

Examples from the recorded data:
sequence_content="GAAAAACAGACAGACAGGAAGAGAGAGAGACAGACA (protein concentration 2 nM)" experimental_value=903
sequence_content="GGGCCTGCGCGCGCACTTCCGCTCTCCCCTCCGGCT (protein concentration 2 nM)" experimental_value=759
sequence_content="AAGTAAGCCCCGCCCCGGAACGGGCAGAAGTAGAGG (protein concentration 2 nM)" experimental_value=1060
sequence_content="CGTCGCCCGGTCCCGGTTCCGGTCCGCGCTCCGGTC (protein concentration 2 nM)" experimental_value=910
sequence_content="ATCAAGGCGCGGCGGCGGAAAAATGTGAAATGGCTT (protein concentration 2 nM)" experimental_value=920

Please find the next sequence below.
**Q:** Look up TF binding intensity: GTCCAGGCAAGAAACAGGAAGTGTGTCATGCACAGA (protein concentration 2 nM)
**A:** 870
